# testedTarget: Tyrosine-protein kinase JAK2 (Homo sapiens, UniProt O60674)
# Sequence (O60674 whole entry): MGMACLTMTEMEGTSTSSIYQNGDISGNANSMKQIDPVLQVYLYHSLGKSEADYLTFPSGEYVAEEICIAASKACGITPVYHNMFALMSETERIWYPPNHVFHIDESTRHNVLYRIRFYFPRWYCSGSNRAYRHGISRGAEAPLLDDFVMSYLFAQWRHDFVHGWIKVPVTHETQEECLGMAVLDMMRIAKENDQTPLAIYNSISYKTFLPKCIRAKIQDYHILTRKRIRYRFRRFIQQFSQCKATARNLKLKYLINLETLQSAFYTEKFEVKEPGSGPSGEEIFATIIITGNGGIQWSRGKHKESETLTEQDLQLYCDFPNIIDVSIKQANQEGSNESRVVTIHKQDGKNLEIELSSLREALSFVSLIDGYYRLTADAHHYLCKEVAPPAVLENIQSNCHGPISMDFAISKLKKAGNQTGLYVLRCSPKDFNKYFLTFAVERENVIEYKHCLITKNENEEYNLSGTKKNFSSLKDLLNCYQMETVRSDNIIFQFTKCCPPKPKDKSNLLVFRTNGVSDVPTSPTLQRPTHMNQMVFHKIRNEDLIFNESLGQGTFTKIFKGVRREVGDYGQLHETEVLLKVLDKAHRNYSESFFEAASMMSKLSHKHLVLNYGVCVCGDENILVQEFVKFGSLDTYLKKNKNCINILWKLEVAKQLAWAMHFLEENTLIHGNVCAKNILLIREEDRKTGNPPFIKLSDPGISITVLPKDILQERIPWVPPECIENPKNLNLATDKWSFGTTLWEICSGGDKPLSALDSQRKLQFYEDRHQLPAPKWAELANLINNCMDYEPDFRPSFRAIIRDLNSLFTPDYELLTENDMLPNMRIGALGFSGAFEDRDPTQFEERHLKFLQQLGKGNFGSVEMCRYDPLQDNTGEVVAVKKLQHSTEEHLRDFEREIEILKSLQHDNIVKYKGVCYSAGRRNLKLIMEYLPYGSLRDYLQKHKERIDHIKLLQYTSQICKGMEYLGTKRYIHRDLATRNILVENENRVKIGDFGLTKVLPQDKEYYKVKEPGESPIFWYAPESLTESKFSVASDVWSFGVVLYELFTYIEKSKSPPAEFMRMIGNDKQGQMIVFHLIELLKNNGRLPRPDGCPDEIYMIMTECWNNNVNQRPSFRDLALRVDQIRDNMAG
A collection of compounds and their measured pIC50
In simple prose, pIC50 is minus the logarithm base ten of a concentration in moles per litre.

Study these solved cases before continuing.
| compound | testedTarget | pIC50 |
| --- | --- | --- |
| C[C@@H]1CCN(C(=O)CC#N)C[C@@H]1n1c(=O)n(C)c2cnc3[nH]ccc3c21 (racemic) | Tyrosine-protein kinase JAK2 (Homo sapiens, UniProt O60674) | 8.14 |
| CC1CCC(n2c(=O)[nH]c3cnc4[nH]ccc4c32)CC1 (stereo not drawn) | Tyrosine-protein kinase JAK2 (Homo sapiens, UniProt O60674) | 7.64 |
| CS(=O)(=O)N1CCC[C@H](n2c(=O)[nH]c3cnc4[nH]ccc4c32)C1 | Tyrosine-protein kinase JAK2 (Homo sapiens, UniProt O60674) | 6.07 |
| N#CCC(=O)N1CCC[C@@H](n2c(=O)[nH]c3cnc4[nH]ccc4c32)C1 | Tyrosine-protein kinase JAK2 (Homo sapiens, UniProt O60674) | 7.77 |
| CS(=O)(=O)N1CCC(n2c(=O)[nH]c3cnc4[nH]ccc4c32)CC1 | Tyrosine-protein kinase JAK2 (Homo sapiens, UniProt O60674) | 6.85 |
| O=c1[nH]c2cnc3[nH]ccc3c2n1C1CCCCCC1 | Tyrosine-protein kinase JAK2 (Homo sapiens, UniProt O60674) | 7.64 |
| CC1(C)CCCCC1n1c(=O)[nH]c2cnc3[nH]ccc3c21 (stereo not drawn) | Tyrosine-protein kinase JAK2 (Homo sapiens, UniProt O60674) | 7.07 |

Let us examine a further case.
Please give the measured pIC50 for this compound: C[C@H]1CCCC[C@H]1n1c(=O)[nH]c2cnc3[nH]ccc3c21
7.77
